These measurements were taken from PubChem BioAssay (NCI).

System: M14 melanoma
METHOD: NCI-60 one-dose screen, 48 h (100 = growth as untreated, 0 = no growth, -100 = all killed)
ASSAY_CONDITIONS: 10 µM unless noted
Experimental: Growth inhibition of the M14 human tumor cell line is measured as a screen for anti-cancer activity. Cells are grown in 96 well plates and exposed to the test compound for 48 hours. Compounds are tested at a single concentration, which is 10^-5 M for most compounds. The reported endpoint is percent growth (GI% or GIPRCNT), where numbers from 0 - 100% represent growth inhibition, and numbers from -100% - 0 represent cell death. For example, a value of 40 represents 60% growth inhibition. […]
About 83,000 compounds went through this panel and 20% of them were active in at least one assay; those are over-represented in the sample as a whole.
The following molecules are shown together with reported growth values.
Numeric only. Scale: %

Solved entries:
MOLECULE	UNIT_DESCRIPTOR	growth
CCCCCCCCCCCCCCCC(=O)NS(=O)(=O)OC[C@H]1O[C@@H](n2cnc3c(N)ncnc32)[C@H](O)[C@@H]1O	%	-68.2
CC(=O)Nc1ccc([I+]c2ccc([N+](=O)[O-])cc2)cc1	%	83
C=C1C(=O)O[C@H]2[C@H]1CC/C(COC(=O)c1ccccc1)=C\CC[C@@]1(C)O[C@@H]21	%	-31.9

Q: Lab request: please report growth under test system M14 melanoma for COc1ccc(C(=O)Cn2cnc3c(Nc4cc(C(=O)Nc5ccc(N6CCN(CCO)CC6)cc5)ccc4C)ncnc32)cc1
Result: 95.3

Q: Test system M14 melanoma; read-out growth; what value for CC(C)(C)NC(C1=CC(C)(C)c2ccccc2C1=O)c1ccccc1 (centres undefined) ?
Result: -41.5

Q: Quick check: growth on M14 melanoma, item CCNC(=O)Oc1ccc(/C(=C(/CC)Cc2ccccc2)c2ccc(OCCN3CCOCC3)cc2)cc1 ?
Result: 41.6

Q: What measured growth is associated with CC1(C)N=C(N)N=C(N)N1c1ccc(OCC(=O)Nc2ccccc2)c(Cl)c1 on M14 melanoma?
Result: 25.7

Q: Which measured growth belongs to CCCCCCCCCCCCCCCCNc1ccccc1 , tested on M14 melanoma?
Result: 106

Q: Give the reported growth for Cc1cc(N2CCOCC2)nc(N(CCNc2ccnc3cc(Cl)ccc23)Cc2ccco2)n1 (system: M14 melanoma).
Result: 39.5

* * *

Tested on: SK-OV-3 ovarian
METHOD: NCI-60 one-dose screen, 48 h
ASSAY_CONDITIONS: 10 µM unless noted
This is part of a sample that, as a whole, favours compounds with a hit. Of some 83,000 tested, about 20% had one in any assay. Active and inactive are the calls of the source. The calls were made as follows: active = growth percent below 10; inactive = the rest.
Your answer must be one of the following: true (1) (active), false (0) (inactive)

Use the examples below as a reference point.
COMPOUND	LABEL_VALUE
O=C1CN(CCN2CC(=O)NC(=O)C2)CC(=O)N1	false (0)
O=C(c1cc(-c2ccc(Cl)cc2)nc2ccccc12)N1N=C(c2ccccc2)CC1c1cc(-c2ccccc2)nn1-c1ccccc1 (stereo not given)	false (0)
CCCCCCCC(=O)SCC/C=C/[C@@H]1CC(=O)NCc2nc(cs2)C2=N[C@@](C)(CS2)C(=O)N[C@@H](C(C)C)C(=O)N1	true (1)
Cl[C@@H]1CCO[C@H](c2cc3ccccc3c3ccccc23)C1	false (0)

Q: State the result this test recorded for C=C1C(=O)O[C@H]2[C@H]1CC/C(COC(=O)CCCC(=O)OC/C1=C/CC[C@@]3(C)O[C@H]3[C@H]3OC(=O)C(=C)[C@@H]3CC1)=C\CC[C@@]1(C)O[C@@H]21 .
Result: false (0)

Q: Record request — test call for S=c1[nH]nc(Cn2c3ccccc3c3ccncc32)o1
Result: false (0)

Q: Just curious, what result did COc1ccc2c(c1)nnn1c3ncccc3c(N=O)c21 get here?
Result: true (1)

Q: For this compound, state the assay outcome: Cc1cccc[n+]1CCC[n+]1ccccc1C
Result: false (0)

Q: State the result this test recorded for Cc1ccc(Cn2cc(COc3ccc4c5ccnc(C)c5n(CCCc5ccccc5)c4c3)nn2)cc1 .
Result: false (0)
